The reported measurements were obtained from patent EP0402033A1.

# Test system: plasma high density lipoprotein cholesterol (HDLC)
# protocol: Pharmacological Test - 1: increase of plasma HDLC concentration in rats after oral administration
# Assay type: in vivo, Wistar strain male rats
# condition details: Wistar male rats, 300 mg/5 ml/kg/day for 2 days in 0.5%-CMC, blood taken after 20 hours fasting, relative to control group
Classify as follows. Reported Increasing ratio (%) of the plasma HDLC concentration greater than or equal to 200%: True. Reported Increasing ratio (%) of the plasma HDLC concentration below: False.

In: Form field: Increasing ratio (%) of the plasma HDLC concentration at least 200%? Entry: `CCOP(=O)(Cc1ccc(C(=O)Nc2ccc(I)cc2C#N)cc1)OCC`
Out: False

In: Proceed to `CCOP(=O)(Cc1ccc(C(=O)Nc2ccc(C#N)cc2Cl)cc1)OCC`
Out: False

In: Proceed to `CCOP(=O)(Cc1ccc(C(=O)Nc2ccc(Br)cc2C#N)cc1)OCC`
Out: False

In: Proceed to `CCOP(=O)(Cc1ccc(C(=O)Nc2ccc(C#N)cc2Br)cc1)OCC`
Out: True

In: Proceed to `CCOP(=O)(Cc1ccc(C(=O)Nc2ccc(C#N)cc2I)cc1)OCC`
Out: False
